Target: Estrogen receptor (Homo sapiens, UniProt P03372)
Sequence (P03372 whole entry): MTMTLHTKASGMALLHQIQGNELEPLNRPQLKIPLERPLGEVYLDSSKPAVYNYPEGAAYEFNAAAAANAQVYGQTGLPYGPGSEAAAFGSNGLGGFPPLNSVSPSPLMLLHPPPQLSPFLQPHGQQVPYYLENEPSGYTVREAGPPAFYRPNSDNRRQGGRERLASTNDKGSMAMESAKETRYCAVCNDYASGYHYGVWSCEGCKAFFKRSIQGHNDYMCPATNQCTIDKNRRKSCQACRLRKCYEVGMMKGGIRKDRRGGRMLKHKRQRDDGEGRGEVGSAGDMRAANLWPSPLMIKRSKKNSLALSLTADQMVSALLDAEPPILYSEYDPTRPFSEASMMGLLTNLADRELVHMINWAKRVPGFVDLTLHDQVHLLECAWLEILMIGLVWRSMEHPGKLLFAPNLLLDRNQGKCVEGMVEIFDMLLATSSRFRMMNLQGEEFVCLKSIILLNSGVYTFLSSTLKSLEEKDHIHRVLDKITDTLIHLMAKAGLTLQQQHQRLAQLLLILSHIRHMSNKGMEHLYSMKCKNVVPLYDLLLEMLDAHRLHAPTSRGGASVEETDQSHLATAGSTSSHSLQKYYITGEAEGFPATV
Experiment: Transactivation of ERalpha in human MCF7-2a cells assessed as luciferase reporter gene expression
property_name: pEC50
Convention used: pEC50 is expressed as -log10 of the molar concentration.

Record C#CCN1C=NC(c2ccc(O)cc2Cl)C1c1ccc(O)cc1Cl (stereo unspecified) , field pEC50: 8.00
